target: NR1A/NR2B NMDA receptor (Rattus norvegicus, UniProt P35439+Q00960); test: Electrophysiological NR1A/NR2B assay in Xenopus oocytes (two-electrode voltage clamp); format: cell-based; conditions: Table 1; oocytes expressing NR1A/NR2B, currents activated by glutamate and glycine
Sequence (Q00960 27-1482, other chains not shown): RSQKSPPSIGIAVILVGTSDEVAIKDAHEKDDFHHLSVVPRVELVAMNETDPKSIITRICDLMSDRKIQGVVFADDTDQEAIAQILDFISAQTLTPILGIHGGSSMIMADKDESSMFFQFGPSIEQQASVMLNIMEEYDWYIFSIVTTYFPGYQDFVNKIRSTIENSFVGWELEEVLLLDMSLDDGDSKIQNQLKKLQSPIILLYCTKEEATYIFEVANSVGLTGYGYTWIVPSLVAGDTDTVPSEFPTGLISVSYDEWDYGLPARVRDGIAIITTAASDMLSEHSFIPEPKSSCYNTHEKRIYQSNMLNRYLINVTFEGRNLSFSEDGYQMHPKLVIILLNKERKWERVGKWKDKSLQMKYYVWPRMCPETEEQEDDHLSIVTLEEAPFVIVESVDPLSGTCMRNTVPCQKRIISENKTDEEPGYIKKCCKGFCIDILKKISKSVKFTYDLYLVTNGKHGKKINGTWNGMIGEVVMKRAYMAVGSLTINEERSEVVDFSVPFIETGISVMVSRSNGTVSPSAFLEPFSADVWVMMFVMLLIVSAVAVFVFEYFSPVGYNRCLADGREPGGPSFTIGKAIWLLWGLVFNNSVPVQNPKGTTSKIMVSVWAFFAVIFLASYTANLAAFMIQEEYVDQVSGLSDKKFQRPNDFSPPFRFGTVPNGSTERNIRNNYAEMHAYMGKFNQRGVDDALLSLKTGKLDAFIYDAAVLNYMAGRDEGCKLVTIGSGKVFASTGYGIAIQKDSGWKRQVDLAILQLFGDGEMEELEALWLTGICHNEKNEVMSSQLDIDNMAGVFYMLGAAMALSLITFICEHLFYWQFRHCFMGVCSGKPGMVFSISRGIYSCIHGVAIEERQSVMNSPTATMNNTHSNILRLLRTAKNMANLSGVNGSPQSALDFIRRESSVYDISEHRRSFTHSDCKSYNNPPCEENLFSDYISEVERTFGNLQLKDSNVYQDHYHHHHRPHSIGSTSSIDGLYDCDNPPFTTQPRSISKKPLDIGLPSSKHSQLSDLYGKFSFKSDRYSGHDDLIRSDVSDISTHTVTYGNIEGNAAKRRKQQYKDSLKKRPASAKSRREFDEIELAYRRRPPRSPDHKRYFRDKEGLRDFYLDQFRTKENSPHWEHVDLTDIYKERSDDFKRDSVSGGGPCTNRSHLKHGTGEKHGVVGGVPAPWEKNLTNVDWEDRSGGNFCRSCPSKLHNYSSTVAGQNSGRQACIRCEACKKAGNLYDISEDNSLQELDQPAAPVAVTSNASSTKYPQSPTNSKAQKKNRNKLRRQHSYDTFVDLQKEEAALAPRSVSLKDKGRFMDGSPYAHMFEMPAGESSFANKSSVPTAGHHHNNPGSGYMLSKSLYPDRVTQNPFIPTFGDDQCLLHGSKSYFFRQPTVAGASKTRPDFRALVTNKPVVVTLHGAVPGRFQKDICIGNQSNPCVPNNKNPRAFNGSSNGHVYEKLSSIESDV
reported.metric: IC50 (µM)

> print(dat)
                                   compound  reported.metric  recorded.number
1  O=c1[nH]c2ccc(C3=NOC(CN4CCC(Cc5ccccc5)CC4)C3)cc2o1 (racemic)             IC50             0.08

---

Overview of recorded melting point for various compounds
Structures can show the parent of a compound that is named as a salt.
reported.metric: melting point

> print(dat)
                                    compound         result
 1  O=c1[nH]c2ccc(C3=NOC(CN4CCC(c5ccc(F)cc5)CC4)C3)cc2o1 (centres unmarked)  214 to 217 °C
 2  Cc1c(C2=NOC(CN3CCC(Cc4ccc(F)cc4)CC3)C2)cc2oc(=O)[nH]c2c1Cl (centres unmarked)  131 to 132 °C
 3  CC(O)(c1ccc(F)cc1)C1CCN(CC2CC(c3ccc4[nH]c(=O)oc4c3)=NO2)CC1 (centres unmarked)  125 to 134 °C
 4  O=c1[nH]c2ccc(C3=NOC(CCN4CCC(c5ccc(F)cc5)CC4)C3)cc2o1 (centres unmarked)  188 to 194 °C
 5  O=c1[nH]c2ccc(C3=NOC(CN4CCC(Sc5ccc(F)cc5)CC4)C3)cc2o1 (centres unmarked)  190 to 192 °C
 6  CC1(CN2CCC(Cc3ccc(F)cc3)CC2)CC(c2ccc3[nH]c(=O)oc3c2)=NO1 (centres unmarked)    82 to 86 °C
 7  O=c1[nH]c2ccc(-c3cc(CN4CCC(Cc5ccc(F)cc5)CC4)on3)cc2o1  237 to 244 °C
 8  O=c1[nH]c2ccc(C3=NOC(CN4CCC(O)(Cc5ccc(F)cc5)CC4)C3)cc2o1 (centres unmarked) (as salt: HCl)  195 to 204 °C
 9  O=C(C1CC(c2ccc3[nH]c(=O)oc3c2)=NO1)N1CCC(Cc2ccc(F)cc2)CC1 (centres unmarked)  210 to 213 °C
10  O=C(O)C1(CN2CCC(Cc3ccc(F)cc3)CC2)CC(c2ccc3[nH]c(=O)oc3c2)=NO1 (centres unmarked)  188 to 194 °C
11  CCOC(=O)C1(Cc2ccc(F)cc2)CCN(CC2CC(c3ccc4[nH]c(=O)oc4c3)=NO2)CC1 (centres unmarked)  212 to 214 °C
12  O=c1[nH]c2ccc(C3=NOC(CN4CCC(Cc5ccc(F)cc5)CC4)C3)cc2s1 (centres unmarked) (as salt: HCl)  271 to 276 °C
13  O=c1[nH]c2ccc(C3=NOC(CN4CCC(Oc5ccc(F)cc5)CC4)C3)cc2o1 (centres unmarked)  192 to 194 °C
14  O=c1[nH]c2ccc(C3=NOC(CN4CC[C@@H](Cc5ccc(F)cc5)[C@@H](O)C4)C3)cc2o1 (stereo in doubt) (as salt: HCl)  224 to 233 °C
15  O=c1[nH]c2ccc(C3=NOC(CCN4CCC(Cc5ccc(F)cc5)CC4)C3)cc2o1 (centres unmarked) (as salt: HCl)  254 to 258 °C
16  O=c1[nH]c2ccc(C3=NOC(CN4CCC(O)(c5ccccc5)CC4)C3)cc2o1 (centres unmarked)  115 to 118 °C
17  O=c1[nH]c2ccc(C3=NOC(CN4CCC(C(O)c5ccc(F)cc5)CC4)C3)cc2o1 (centres unmarked) (as salt: HCl)  186 to 191 °C
